tested on: scalp of dandruff and non-dandruff subjects; assay: Metabolite expression profiling (LC/MS/MS, GC/MS/MS) of scalp D-Squame tape strip extracts: non-dandruff, dandruff baseline, dandruff after 3 weeks anti-dandruff shampoo; type: in vivo, human; conditions: metabolite level in scalp tape strips, standardized to soluble protein; dandruff subjects after 3 weeks 1% selenium sulfide shampoo vs own baseline
Marks after values point to notes of the source that are not given here.
Form field: Fold Change Wk 3 Sel vs Dandruff Baseline (one value per entry).
Outcome measure: Fold Change Wk 3 Sel vs Dandruff Baseline

>  <Molecule>
CCCCCCCCCCCCCCCCCCC(=O)O [nonadecanoate (19:0), nonadecanoate]

>  <Observed>
0.29* fold

$$$$
>  <Molecule>
CCCCCCC=CCCCCCCCCC(=O)O [10-heptadecenoate (17:1n7), 10-heptadecenoate]

>  <Observed>
0.33* fold

$$$$
>  <Molecule>
OC[C@@H](O)C(O)[C@H](O)CO

>  <Observed>
0.73 fold

$$$$
>  <Molecule>
CCCCCCCCCCCCCCC(O)C(=O)O (stereo not drawn) [2-hydroxypalmitate]

>  <Observed>
0.57* fold

$$$$
>  <Molecule>
Cn1cc(C(N)=O)ccc1=O [N1-Methyl-2-pyridone-5-carboxamide]

>  <Observed>
0.89 fold

$$$$
>  <Molecule>
NCCO

>  <Observed>
1.63**** fold

$$$$

====

Form field: Fold Change Wk 3 Sel vs Dandruff Baseline (one value per entry).
system: scalp of dandruff and non-dandruff subjects; test: Metabolite expression profiling (LC/MS/MS, GC/MS/MS) of scalp D-Squame tape strip extracts: non-dandruff, dandruff baseline, dandruff after 3 weeks anti-dandruff shampoo; type: in vivo, human; conditions: metabolite level in scalp tape strips, standardized to soluble protein; dandruff subjects after 3 weeks 1% selenium sulfide shampoo vs own baseline
Marks after values point to notes of the source that are not given here. Peptide text beside a SMILES is read from it.
Outcome measure: Fold Change Wk 3 Sel vs Dandruff Baseline

>  <Compound>
O=C(O)/C=C/c1cnc[nH]1 [trans-urocanate]

>  <Observed>
0.74* fold

$$$$
>  <Compound>
CCCCCCCCCCCCCCCCC(=O)O [margarate (17:0), margarate]

>  <Observed>
0.31* fold

$$$$
>  <Compound>
O=C(O)c1ccccc1 [Benzoate]

>  <Observed>
7.26**** fold

$$$$
>  <Compound>
CCCCCCCCC=CCCCCCCCCC(=O)O [10-nonadecenoate (19:1n9), 10-nonadecenoate]

>  <Observed>
0.14* fold

$$$$
>  <Compound>
CC/C=C\C/C=C\C/C=C\CCCCCCCCCCCC(=O)O [docosatrienoate (22:3n3), docosatrienoate]

>  <Observed>
0.13* fold

$$$$
>  <Compound>
CCCCCCCCCCCCCCCCCCCC(=O)O [arachidate (20:0), arachidate]

>  <Observed>
0.42* fold

$$$$
>  <Compound>
CC(C)C[C@H](N)C(=O)N[C@@H](CCC(=O)O)C(=O)O [Leucylglutamate] (H-Leu-Glu-OH)

>  <Observed>
0.81* fold

$$$$
>  <Compound>
CCCCCCCCCCCCCCCCCC(=O)NCCO [Stearoyl ethanolamide]

>  <Observed>
5.03** fold

$$$$
>  <Compound>
N[C@@H](CCC(=O)N[C@@H](CCC(=O)O)C(=O)O)C(=O)O [Gamma-glutamylglutamate]

>  <Observed>
0.95 fold

$$$$
>  <Compound>
CCCCCCCCCCCCCCC(=O)O [pentadecanoate (15:0), pentadecanoate]

>  <Observed>
0.19* fold

$$$$
>  <Compound>
CC(C)CCCCCCCCCCCCCC(=O)O [15-methylpalmitate]

>  <Observed>
0.31* fold

$$$$
>  <Compound>
CCCCCC/C=C\CCCCCCCC(=O)O [Palmitoleate (16:1n7), Palmitoleate]

>  <Observed>
0.55* fold

$$$$

====

test system: scalp of dandruff and non-dandruff subjects; test: Metabolite expression profiling (LC/MS/MS, GC/MS/MS) of scalp D-Squame tape strip extracts: non-dandruff, dandruff baseline, dandruff after 3 weeks anti-dandruff shampoo; type: in vivo, human; conditions: metabolite level in scalp tape strips, standardized to soluble protein; dandruff subjects after 3 weeks 1% zinc pyrithione shampoo vs own baseline
Marks after values point to notes of the source that are not given here. Peptide text beside a SMILES is read from it.
Form field: Fold Change Wk 3 ZPT vs Dandruff Baseline (one value per entry).
Outcome measure: Fold Change Wk 3 ZPT vs Dandruff Baseline

>  <Compound>
CC(C)C[C@H](N)C(=O)N[C@@H](CCC(=O)O)C(=O)O [Leucylglutamate] (H-Leu-Glu-OH)

>  <Observed>
1.13 fold

$$$$
>  <Compound>
CCCCCCC=CCCCCCCCCC(=O)O [10-heptadecenoate (17:1n7), 10-heptadecenoate]

>  <Observed>
0.67*** fold

$$$$
>  <Compound>
OC[C@@H](O)C(O)[C@H](O)CO [Arabitol]

>  <Observed>
0.61* fold

$$$$
>  <Compound>
CCCCC/C=C\C/C=C\CCCCCCCCCCCC(=O)O [docosadienoate (22:2n6), docosadienoate]

>  <Observed>
0.24* fold

$$$$
>  <Compound>
CCCCCCCCCCCCCCCCCCC(=O)O [nonadecanoate (19:0), nonadecanoate]

>  <Observed>
0.47* fold

$$$$
>  <Compound>
CC/C=C\C/C=C\C/C=C\CCCCCCCCCCCC(=O)O [docosatrienoate (22:3n3), docosatrienoate]

>  <Observed>
0.26* fold

$$$$
>  <Compound>
O=C(O)/C=C\c1cnc[nH]1 [cis-urocanate]

>  <Observed>
1.19 fold

$$$$
>  <Compound>
CCCCCCCCC=CCCCCCCCCC(=O)O [10-nonadecenoate (19:1n9), 10-nonadecenoate]

>  <Observed>
0.31* fold

$$$$

====

Form field: Fold Change Wk 3 ZPT vs Dandruff Baseline (one value per entry).
tested on: scalp of dandruff and non-dandruff subjects; assay: Metabolite expression profiling (LC/MS/MS, GC/MS/MS) of scalp D-Squame tape strip extracts: non-dandruff, dandruff baseline, dandruff after 3 weeks anti-dandruff shampoo; type: in vivo, human; settings: metabolite level in scalp tape strips, standardized to soluble protein; dandruff subjects after 3 weeks 1% zinc pyrithione shampoo vs own baseline
Marks after values point to notes of the source that are not given here.
Outcome measure: Fold Change Wk 3 ZPT vs Dandruff Baseline

>  <Compound>
CC(C)CCCCCCCCCCCCCC(=O)O [15-methylpalmitate]

>  <Observed>
0.4* fold

$$$$
>  <Compound>
CCCCCCCCCCCCCCC(O)C(=O)O (centres unmarked) [2-hydroxypalmitate]

>  <Observed>
1.04 fold

$$$$
>  <Compound>
O=C(O)/C=C/C(=O)O [Fumarate]

>  <Observed>
0.53 fold

$$$$
>  <Compound>
CCCCCCCCCCCCCCCCCCCCCC(=O)O [behenate (22:0), behenate]

>  <Observed>
0.47 fold

$$$$
>  <Compound>
CC(C)CCCCCCCCCCCCCCCC(=O)O [17-methylstearate]

>  <Observed>
0.36* fold

$$$$
>  <Compound>
CCCCCCCCCCCCCCCCC(=O)O [margarate (17:0), margarate]

>  <Observed>
0.6*** fold

$$$$
>  <Compound>
O=C(O)c1ccccc1 [Benzoate]

>  <Observed>
2.02**** fold

$$$$
>  <Compound>
CCCCCC/C=C\CCCCCCCC(=O)O [Palmitoleate (16:1n7), Palmitoleate]

>  <Observed>
0.83* fold

$$$$
>  <Compound>
O=C(O)/C=C/c1cnc[nH]1 [trans-urocanate]

>  <Observed>
0.87 fold

$$$$
>  <Compound>
CC(C)CCCCCCCCCCCCC(=O)O

>  <Observed>
0.41* fold

$$$$
>  <Compound>
CCCCCCCCCCCCCCCCCCCC(=O)O [arachidate (20:0), arachidate]

>  <Observed>
0.55* fold

$$$$
